TARGET OR SYSTEM: Inward rectifier potassium channel 2 (Mus musculus)
PROTOCOL NOTES: blocks the mouse Kir2.1 inward-rectifier potassium channel (AID 1672);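 further: channel flux triggered by added potassium and thallium sulfate stimulus; B-score of peak minus minimum fluorescence over baseline after thallium stimulus; more negative B-score means stronger Kir2.1 block with less thallium influx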
REPORTED CONDITIONS: HEK293-Kir2.1, FluxOR thallium flux fluorescence; at 10 µM; stronger effect = lower value
Out of some 310,000 compounds screened, about 2,600 (0.84%) were called active. This is one part of a sample in which actives are shown more often than they occur.
Catalogue of molecules with associated B-score

Query: Recorded B-score of CC(C)Sc1nnc([C@H](Cc2ccccc2)NC(=O)OC(C)(C)C)o1 , please.
Response: -0.51 (inactive)

Query: Recorded B-score of COc1ccccc1CCNS(=O)(=O)c1cc2c3c(c1)C(C)C(=O)N3CCC2 (centres undefined) , please.
Response: -5.71 (active)

Query: Recorded B-score of Cc1nc2ccc(C(=O)N(C)CC3CCCN(CCc4ccc(Cl)cc4)C3)cc2[nH]1 (centres undefined) , please.
Response: -1.32 (inactive)

Query: Recorded B-score of COc1ccc(C(O)(C2CCCCC2)C(CN2CCCC2)c2ccccc2)cc1 (centres undefined) , please.
Response: -6.33 (active)

Query: Recorded B-score of Cc1ccc2nc3n(c(=O)c2c1)CCC3 , please.
Response: -2.3 (inactive)

Query: Recorded B-score of COc1ccc(NC(=O)CN(C)C(=O)c2ccc(NC3CC3)c([N+](=O)[O-])c2)cc1 , please.
Response: 0.91 (inactive)

Query: Recorded B-score of COc1c(C=O)c(CCN(C)C(=O)c2ccc(F)cc2)cc2c1OCO2 , please.
Response: -4.35 (active)

Query: Recorded B-score of C[C@H](NC(=O)OC(C)(C)C)c1nnc(SCC(N)=O)o1 , please.
Response: -0.34 (inactive)

Query: Recorded B-score of COc1ccc(C)cc1NC(=O)CSc1nnc2ccc(-c3ccccn3)nn12 , please.
Response: 0.98 (inactive)

Query: Recorded B-score of Cc1ccc2nc(SCC(=O)Nc3cccc4ccccc34)nc(=O)n2c1 , please.
Response: -0.81 (inactive)

Query: Recorded B-score of COc1cccc2[nH]c(C(=O)NCCc3ccccc3)cc12 , please.
Response: 0.06 (inactive)

Query: Recorded B-score of CC(C)c1ccc(S(=O)(=O)N2CCN(C(=O)CN3C(=O)NC(C)(c4ccccc4)C3=O)CC2)cc1 (centres undefined) , please.
Response: -0.17 (inactive)

Query: Recorded B-score of Cc1ccc(OCC(O)CN2CCN(CC(O)COc3ccc(C)cc3Cl)CC2)c(Cl)c1 (centres undefined) , please.
Response: 0.66 (inactive)
